- Tested on: satellite-like cells (Pax7-positive cells) in hMP
- EXPERIMENT: Myotube assay: Pax7-positive (satellite-like) cell quantification
- Type: cell-based, human
- Parameters: key: −: Depletes the pool of cells, while positively affects the myotubes; +: Maintains or increases the pool of cells, with at least 1 of the highest concentration known to be cytotoxic; ++: Maintains or increases the pool of cells, without any toxicity
- REPORTED_CONDITIONS: myotube assay, compounds incubated 3 days

- COMPOUND_STRUCTURE: "CSc1cc(Oc2ccnc3c2CCC(=O)N3)ccc1NC(=O)Nc1ncc(C(C)(C)C)s1"
  Pax7% (pool of Pax7-positive cells): "++"
- COMPOUND_STRUCTURE: "CSc1cc(Oc2ccnc(N(CCN(C)C)C(=O)OC(C)(C)C)c2)ccc1NC(=O)Nc1cc(C(C)(C)C)nn1-c1ccccc1"
  Pax7% (pool of Pax7-positive cells): "+"
- COMPOUND_STRUCTURE: "CSc1cc(Oc2ccnc3[nH]c(=O)ccc23)ccc1NC(=O)Nc1cc(C(C)(C)C)nn1-c1ccccc1"
  Pax7% (pool of Pax7-positive cells): "+"
- COMPOUND_STRUCTURE: "CC(C)(C)c1cc(NC(=O)Nc2cc(F)c(Oc3ccnc4[nH]c(=O)cnc34)cc2F)n(-c2ccccc2)n1"
  Pax7% (pool of Pax7-positive cells): "++"

====

- System: muscle progenitors (hMP) from DMD hiPSC or WT hiPSC
- EXPERIMENT: Myotube assay: myogenic activity (total myotube area per well)
- Type: cell-based, human
- REPORTED_CONDITIONS: Homo sapiens, 72 h; myotube assay, compounds incubated 3 days; read-out: MA (normalized Myotube Area, efficacy)
MEASURED_ATTRIBUTE: Emax

Answered cases to consult:
- MOLECULE: "CC1(c2cc(NC(=O)Nc3ccc(Oc4ccnc5[nH]c(=O)cnc45)cc3F)n(-c3ccccc3)n2)COC1"
  MEASURED_ATTRIBUTE: "Emax"
  RESULT: "50 to 75%"
- MOLECULE: "CSc1cc(Oc2ccnc3[nH]c(=O)cnc23)ccc1NC(=O)Nc1nnc(C(C)(C)C)o1"
  MEASURED_ATTRIBUTE: "Emax"
  RESULT: "≥ 75%"
- MOLECULE: "CSc1cc(Oc2ccnc3[nH]c(=O)cnc23)ccc1NC(=O)Nc1cc(C(C)(C)C)on1"
  MEASURED_ATTRIBUTE: "Emax"
  RESULT: "≥ 75%"

Read off the recorded Emax for CSc1cc(Oc2ccnc(N)c2)ccc1NC(=O)Nc1cc(C(C)(C)C)nn1-c1ccccc1.Cl [(bj), hydrochloride]
≥ 75%

Read off the recorded Emax for CCC(C)c1cc(NC(=O)Nc2ccc(Oc3ccnc4[nH]c(=O)cnc34)cc2F)n(-c2ccccc2)n1 (centres unmarked)
50 to 75%

====

- Tested on: satellite-like cells (Pax7-positive cells) in hMP
- EXPERIMENT: Myotube assay: Pax7-positive (satellite-like) cell quantification
- Assay type: cell-based, human
- Design: key: −: Depletes the pool of cells, while positively affects the myotubes; +: Maintains or increases the pool of cells, with at least 1 of the highest concentration known to be cytotoxic; ++: Maintains or increases the pool of cells, without any toxicity
- REPORTED_CONDITIONS: myotube assay, compounds incubated 3 days
MEASURED_ATTRIBUTE: Pax7% (pool of Pax7-positive cells)

Answered cases to consult:
- COMPOUND: "CSc1cc(Oc2ccnc3[nH]c(=O)cnc23)ccc1NC(=O)Nc1cc(C(C)(C)C)nn1-c1ccc(F)c(Cl)c1"
  Pax7% (pool of Pax7-positive cells): "+"
- COMPOUND: "CSc1cc(Oc2ccnc3[nH]c(=O)cnc23)ccc1NC(=O)Nc1cc(C(C)(C)C)nn1-c1ccc2ncccc2c1"
  Pax7% (pool of Pax7-positive cells): "+"
- COMPOUND: "CSc1cc(Oc2ccnc(NC(=O)OCc3ccccc3)c2)ccc1NC(=O)Nc1cc(C(C)(C)C)nn1-c1ccccc1"
  Pax7% (pool of Pax7-positive cells): "+"
- COMPOUND: "CSc1cc(Oc2ccnc(NC(=O)CO)c2)ccc1NC(=O)Nc1cc(C(C)(C)C)nn1-c1ccccc1"
  Pax7% (pool of Pax7-positive cells): "+"
- COMPOUND: "CNC(=O)c1cc(Oc2cccc(NC(=O)Nc3cc(C(C)(C)C)nn3-c3ccccc3)c2)ccn1"
  Pax7% (pool of Pax7-positive cells): "++"
- COMPOUND: "CCOC(=O)Nc1cc(Oc2ccc(NC(=O)Nc3ncc(C(C)(C)C)s3)c3ccccc23)ccn1"
  Pax7% (pool of Pax7-positive cells): "+"

Read off the recorded Pax7% (pool of Pax7-positive cells) for CC1(c2cc(NC(=O)Nc3ccc(Oc4ccnc5[nH]c(=O)cnc45)cc3F)n(-c3ccccc3)n2)COC1
++

Read off the recorded Pax7% (pool of Pax7-positive cells) for CCOC(=O)Nc1cc(Oc2ccc(NC(=O)Nc3cc(C(C)(C)C)on3)c(SC)c2)ccn1
++

Read off the recorded Pax7% (pool of Pax7-positive cells) for CC(C)(C)c1cc(NC(=O)Nc2ccc(Oc3ccnc4[nH]c(=O)cnc34)cc2F)n(Cc2ccccc2)n1
++

Read off the recorded Pax7% (pool of Pax7-positive cells) for CSc1cc(Oc2ccnc(NC(C)=O)c2)ccc1NC(=O)Nc1cc(C(C)(C)C)nn1-c1ccccc1
+

Read off the recorded Pax7% (pool of Pax7-positive cells) for CC(C)(C)c1cc(NC(=O)Nc2ccc(C(=O)c3ccncc3)cc2)n(-c2ccccc2)n1
+

Read off the recorded Pax7% (pool of Pax7-positive cells) for CC(C)(C)c1cc(NC(=O)Nc2ccc(Oc3ccncc3)cc2F)n(-c2ccccc2)n1
++

Read off the recorded Pax7% (pool of Pax7-positive cells) for CSc1cc(Oc2ccnc(NC(=O)CN(C)C(=O)OC(C)(C)C)c2)ccc1NC(=O)Nc1cc(C(C)(C)C)nn1-c1ccccc1
+

Read off the recorded Pax7% (pool of Pax7-positive cells) for CC(C)(C)c1cc(NC(=O)Nc2cccc(Oc3ccnc4[nH]c(=O)cnc34)c2F)n(-c2ccccc2)n1
++

Read off the recorded Pax7% (pool of Pax7-positive cells) for CSc1cc(Oc2ccnc3[nH]c(=O)cnc23)ccc1NC(=O)Nc1cc(C(C)(C)C)nn1-c1ccc(C)c(C)c1
++

Read off the recorded Pax7% (pool of Pax7-positive cells) for CSc1cc(Oc2ccnc3[nH]c(=O)cnc23)ccc1NC(=O)Nc1cc(C(C)(C)C)nn1-c1cccc(F)c1
++

====

- Test system: satellite-like cells (Pax7-positive cells) in hMP
- EXPERIMENT: Myotube assay: Pax7-positive (satellite-like) cell quantification
- Format: cell-based, human
- Design: key: −: Depletes the pool of cells, while positively affects the myotubes; +: Maintains or increases the pool of cells, with at least 1 of the highest concentration known to be cytotoxic; ++: Maintains or increases the pool of cells, without any toxicity
- REPORTED_CONDITIONS: myotube assay, compounds incubated 3 days
MEASURED_ATTRIBUTE: Pax7% (pool of Pax7-positive cells)

- COMPOUND: "CSc1cc(Oc2ccnc3[nH]c(=O)[nH]c23)ccc1NC(=O)Nc1cc(C(C)(C)C)nn1-c1ccccc1"
  SYSTEM_UNDER_TEST: "satellite-like cells (Pax7-positive cells) in hMP"
  RESULT: "−"
- COMPOUND: "CSc1cc(NC(=O)Nc2cc(C(C)(C)C)nn2-c2ccccc2)ccc1Oc1ccnc2[nH]c(=O)cnc12"
  SYSTEM_UNDER_TEST: "satellite-like cells (Pax7-positive cells) in hMP"
  RESULT: "+"
- COMPOUND: "CSc1cc(Oc2ccnc3[nH]c(=O)cnc23)ccc1NC(=O)Nc1cc(C(C)(C)C)nn1-c1ccc(CN2CCOCC2)cc1"
  SYSTEM_UNDER_TEST: "satellite-like cells (Pax7-positive cells) in hMP"
  RESULT: "+"
- COMPOUND: "CC(C)(C)c1cc(NC(=O)Nc2ccc(Oc3ccnc4[nH]c(=O)cnc34)cn2)n(-c2ccccc2)n1"
  SYSTEM_UNDER_TEST: "satellite-like cells (Pax7-positive cells) in hMP"
  RESULT: "++"
- COMPOUND: "O=C(Nc1ccc(Oc2ccnc3[nH]c(=O)cnc23)cc1F)Nc1c2c(nn1-c1ccccc1)CCC2"
  SYSTEM_UNDER_TEST: "satellite-like cells (Pax7-positive cells) in hMP"
  RESULT: "++"

Read off the recorded Pax7% (pool of Pax7-positive cells) for CC(C)(C)c1cc(NC(=O)Nc2ccc(Oc3ccnc4[nH]c(=O)cnc34)cc2F)n(-c2ncccn2)n1
++

Read off the recorded Pax7% (pool of Pax7-positive cells) for CC(C)c1cc(NC(=O)Nc2ccc(Oc3ccnc4[nH]c(=O)cnc34)cc2F)n(-c2ccccc2)n1
++

Read off the recorded Pax7% (pool of Pax7-positive cells) for CSc1cc(Oc2ccnc3c2CCC(=O)N3)ccc1NC(=O)Nc1cc(C(C)(C)C)nn1-c1ccc(C)cc1
+

Read off the recorded Pax7% (pool of Pax7-positive cells) for CC(C)(C)c1cnc(NC(=O)Nc2ccc(Oc3ccnc4c3CCC(=O)N4)c3ccccc23)s1
++

Read off the recorded Pax7% (pool of Pax7-positive cells) for CSc1cc(Oc2ccnc3c2CCCN3)ccc1NC(=O)Nc1cc(C(C)(C)C)nn1-c1ccccc1
++

Read off the recorded Pax7% (pool of Pax7-positive cells) for CSc1cc(Oc2ccnc3[nH]c(=O)cnc23)ccc1NC(=O)Nc1cc(C(C)(C)C)nn1C1CCCCC1
++

Read off the recorded Pax7% (pool of Pax7-positive cells) for CNC(=O)c1ccc(Oc2ccc(NC(=O)Nc3cc(C(C)(C)C)nn3-c3ccccc3)c(SC)c2)cn1
++
